Provide the reported IC50 of each item.
Target entity: N-terminal GST tagged recombinant human RET cytoplasmic domain (aa 658-end), wild type RET kinase (Homo sapiens (Human), UniProt P07949)
Sequence (P07949 658-1114): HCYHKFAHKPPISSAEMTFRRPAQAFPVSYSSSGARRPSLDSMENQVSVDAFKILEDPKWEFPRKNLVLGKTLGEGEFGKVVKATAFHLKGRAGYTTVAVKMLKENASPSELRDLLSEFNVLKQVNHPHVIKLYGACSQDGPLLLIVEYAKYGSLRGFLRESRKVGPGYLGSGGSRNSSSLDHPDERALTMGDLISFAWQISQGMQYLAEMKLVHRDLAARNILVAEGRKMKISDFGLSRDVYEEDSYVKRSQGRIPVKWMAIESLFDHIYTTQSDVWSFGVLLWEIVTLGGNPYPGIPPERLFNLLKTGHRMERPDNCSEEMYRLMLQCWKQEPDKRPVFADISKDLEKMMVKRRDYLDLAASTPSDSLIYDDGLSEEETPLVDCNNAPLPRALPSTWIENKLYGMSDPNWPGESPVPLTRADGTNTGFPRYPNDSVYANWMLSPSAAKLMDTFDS
Assay comment: RET Enzyme Assay (HTRF KinEASE-TK), wild type RET
Type: biochemical
Measurement parameters: wild type RET, 1 mM ATP
Numeric answer only, unit nM assumed.

Problem: I would be grateful if you could share the reported IC50 for CC(C)S(=O)(=O)CCN1CCN(c2ccc(-c3cc(-c4cnn(C)c4)cn4ncc(C#N)c34)cn2)CC1 .
Result: 10.8

Problem: I would be grateful if you could share the reported IC50 for Cn1cc(-c2cc(-c3ccc(N4CCN(Cc5ccc(OC(F)F)nc5)CC4)nc3)c3c(C#N)cnn3c2)cn1 .
Result: 13.6

Problem: I would be grateful if you could share the reported IC50 for CCONC(=O)C1CCN(c2ccc(-c3cc(-c4cnn(C)c4)cn4ncc(C#N)c34)cn2)CC1 .
Result: 6.1

Problem: I would be grateful if you could share the reported IC50 for Cc1cc(-c2cc(-c3cnn(C)c3)cn3ncc(C#N)c23)cnc1N1CCN(C(=O)CC(C)(C)C)CC1 .
Result: 318

Problem: I would be grateful if you could share the reported IC50 for CCn1cc(-c2cc(-c3ccc(N4CCN(Cc5ccccc5)CC4)nc3)c3c(C#N)cnn3c2)c(C)n1 .
Result: 16.5

Problem: I would be grateful if you could share the reported IC50 for C[C@@H](NC(=O)C1(C)CCN(c2ccc(-c3cc(-c4cnn(C)c4)cn4ncc(C#N)c34)cn2)CC1)C(F)(F)F .
Result: 16.1

Problem: I would be grateful if you could share the reported IC50 for COCC(=O)NC1CCN(c2ccc(-c3cc(-c4cnn(C)c4)cn4ncc(C#N)c34)cn2)CC1 .
Result: 11.9

Problem: I would be grateful if you could share the reported IC50 for Cn1cc(-c2cc(-c3ccc(N4CCC(C(=O)NOC(C)(C)C)CC4)nc3)c3c(C#N)cnn3c2)cn1 .
Result: 6.4

Problem: I would be grateful if you could share the reported IC50 for CN(C)CCC(=O)N1CCN(c2ccc(-c3cc(-c4cnn(C)c4)cn4ncc(C#N)c34)cn2)CC1 [Example 33, bis(2,2,2-trifluoroacetate)] .
Result: 42.9

Problem: I would be grateful if you could share the reported IC50 for Cn1cc(-c2cc(-c3ccc(N4CCN(Cc5ccccc5)CC4)nc3)c3c(Cl)cnn3c2)cn1 .
Result: 34.4

Problem: I would be grateful if you could share the reported IC50 for Cn1cc(-c2cc(-c3ccc(N4CCN(CCNC(=O)OC(C)(C)C)CC4)nc3)c3c(C#N)cnn3c2)cn1 .
Result: 31.3

Problem: I would be grateful if you could share the reported IC50 for CC(C)C(=O)N[C@@H]1CCCN(c2ccc(-c3cc(-c4cnn(C)c4)cn4ncc(C#N)c34)cn2)C1 .
Result: 31.8

Problem: I would be grateful if you could share the reported IC50 for COC(C)CNC(=O)C1CCN(c2ccc(-c3cc(-c4cnn(C)c4)cn4ncc(C#N)c34)cn2)CC1 (stereo not drawn) .
Result: 8.7

Problem: I would be grateful if you could share the reported IC50 for CC(C)C(=O)N1CCN(c2ccc(-c3cc(-c4cnn(C)c4)cn4ncc(C#N)c34)cn2)CC1 .
Result: 14.1

Problem: I would be grateful if you could share the reported IC50 for C[C@@H](O)C(=O)N1CCN(c2ccc(-c3cc(-c4cnn(C)c4)cn4ncc(C#N)c34)cn2)CC1 .
Result: 23.9
